Molecular target: T1, dimeric human LTBR-Fc biotinylated (P1AE2401) (human, UniProt P36941 31-227, biotinylated in vitro)
T1 construct: bought from R&D Systems (7538-LR); also called human LTBR ECD; not shown: human IgG1 Fc-Fragment
Test: competition ELISA vs lymphotoxin α1β2 (P1AE1235)
readout-type: pIC50
Interpret pIC50 as the negative base-10 log of the concentration measured in mol/L.

# query: pIC50 of entry P1AE9459 (antibody, human IgG1, kappa, L234A L235A, V domains shown, human IgG1 PG LALA; from transgenic rabbit immunization) VH: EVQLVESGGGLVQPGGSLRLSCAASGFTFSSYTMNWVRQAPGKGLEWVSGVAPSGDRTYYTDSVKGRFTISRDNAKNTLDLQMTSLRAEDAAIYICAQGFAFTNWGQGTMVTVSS VL: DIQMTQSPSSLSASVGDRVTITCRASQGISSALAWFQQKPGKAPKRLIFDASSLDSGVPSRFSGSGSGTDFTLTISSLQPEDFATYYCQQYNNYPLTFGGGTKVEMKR
9.94

All figures here come from patent US20250034269A1.
